test system: CCRF-CEM leukemia; assay: NCI tumour cell line growth inhibition, 48 h
Property Name: TGI

What TGI appears in the records for this molecule with CCRF-CEM leukemia? `COc1ccc(F)cc1/C=C/C(=O)/C=C(/C=C/c1cc(F)ccc1OC)OB(F)F` 0.679 µM

What TGI appears in the records for this molecule with CCRF-CEM leukemia? `Cc1cccc(NC2=C(Cl)C(=O)N(Cc3ccc(Cl)cc3)C2=O)c1` 1.78 µM

What TGI appears in the records for this molecule with CCRF-CEM leukemia? `Cc1ccc(C)c(COc2cc(NC(=O)c3ccc4c(c3)OCO4)ccc2N(C)S(C)(=O)=O)c1` > 100 µM

Taken from PubChem BioAssay (NCI).
